test system: phosphodiesterase isolated from cattle heart; assay: Phosphodiesterase inhibition, radioisotope method with 3H-c-AMP, enzyme isolated from cattle heart; type: biochemical; conditions: 5 × 10^-6 mole/lit. test compound, control without inhibitor = 100%, 20 minutes incubation, 5 µM
Counter-ions that a name gives are not always drawn.
MEASURED_ATTRIBUTE: effect of the test compound on enzyme activity in % of the control (%)

Example entries begin here.
MOLECULE: CC[C@@]12C=C(COC(=O)c3cc(OC)c(OC)c(OC)c3)n3c4c(c5cc(Br)ccc53)CCN(CCC1)[C@H]42
TARGET_DESC: phosphodiesterase isolated from cattle heart
RESULT: 67.8
//
MOLECULE: COc1ccc(Cc2nccc3cc(OC)c(OC)cc23)cc1OC [Papaverine HCl, reference compound]
TARGET_DESC: phosphodiesterase isolated from cattle heart
RESULT: 91.3

a. CC[C@@]12C=C(COC(=O)c3cc(OC)c(OC)c(OC)c3)n3c4c(c5cc(OC)ccc53)CCN(CCC1)[C@H]42
b. CC[C@@]12C=C(COC(=O)c3cc(OC)c(OC)c(OC)c3)n3c4c(c5ccc(Br)cc53)CCN(CCC1)[C@H]42 [hydrochloride]
Identify the entry with the larger effect of the test compound on enzyme activity in % of the control. Options: a and b Your answer should be the label of the entry you select.
a
(a: 59.1%, b: 31.9%)
